These entries and their values trace back to paper PMC8119466.

# ASSAYED SYSTEM: recombinant PRL-3 (Homo sapiens)
# Construct: 6xHis (N, cleaved yes); made in house; host or cells: E. coli One Shot BL21 Star
# Sequence (O75365 whole entry): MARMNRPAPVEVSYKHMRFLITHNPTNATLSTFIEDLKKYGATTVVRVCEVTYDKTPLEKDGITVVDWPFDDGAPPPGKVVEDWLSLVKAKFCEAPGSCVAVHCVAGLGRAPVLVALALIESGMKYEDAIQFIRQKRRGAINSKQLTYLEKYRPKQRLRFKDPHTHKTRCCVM
# EXPERIMENT: In vitro phosphatase assay (DiFMUP hydrolysis), PRL-3; further: test concentration or dose not given here
# Format: biochemical
# CONDITIONS: FDA-approved drug screen; compared to DMSO
Where a name gives a salt, the structure may show the parent alone.
Provide the recorded % Phosphatase Activity (compared to DMSO) PRL-3 for the entries that follow.
State just the number; it will be interpreted in %.

Ask: Fill in the blank: the reported % Phosphatase Activity (compared to DMSO) PRL-3 of CCCC(=O)Nc1ccc(OCC(O)CNC(C)C)c(C(C)=O)c1 (stereo not shown) [Acebutolol HCl] is ____.
Result: 86

Ask: Can you handle O=C(O)c1ccccc1O [Salicylic acid] next?
Result: 98

Ask: What do you have for CC(C)(Oc1ccc(Cl)cc1)C(=O)O [Clofibric Acid] ?
Result: 81

Ask: Request: CC(=O)Oc1cc2c(s1)CCN(C(C(=O)C1CC1)c1ccccc1F)C2 (stereo not shown) [Prasugrel Hydrochloride]
Result: 87

Ask: Proceed to C[N+](C)(C)CCOC(N)=O [Carbachol]
Result: 82

Ask: Also COc1cc(Nc2ncc(F)c(Nc3ccc4c(n3)N(COP(=O)(O)O)C(=O)C(C)(C)O4)n2)cc(OC)c1OC [Fostamatinib (R788)] , if possible.
Result: 96

Ask: Next compound: CNC[C@H](O)[C@@H](O)[C@H](O)[C@H](O)CO.CNC[C@H](O)[C@@H](O)[C@H](O)[C@H](O)CO.C[C@@H](O[C@H]1OCCN(Cc2nn(P(=O)(O)O)c(=O)[nH]2)[C@H]1c1ccc(F)cc1)c1cc(C(F)(F)F)cc(C(F)(F)F)c1 [Fosaprepitant dimeglumine salt]
Result: 85
